Data provenance: the nanobody polyreactivity screen of Harvey et al. (2022)

# EXPERIMENT_NOTES: yeast display, Sf9 membrane polyspecificity reagent, FACS + sequencing; frameworks hold sequencing errors
ATTRIBUTE_MEASURED: polyreactivity (PSR sort gate)

QVQLVESGGGLVQAGGSLRLSCAASGIIFKYYSKGWYRQAPGKERELVAAITSGGSTNYADSVKGRFTISRDNAKNTVYLQMNSLKPEDTAVYYCAKRFYYRNRFDYWGQGTQETVSS low polyreactivity
QVQLVESGGGLVQAGGSLRLSCAASGRIFKIYAMGWYRQAPGKEREFVATISSGGRTNYADSVKGRFTISRDNAKNTVYLQMNSLKPEDTAVYYCNAGARVLYETESFDYWGQGIQVTVSS low polyreactivity
